experiment: Clearance in Sprague-Dawley rat at 5 mg/kg, iv
Assay type: ADME, organism-based
Parameters: dose 5 mg/kg, route intravenous
condition-summary: in vivo
result-type: clearance (mL/min/kg)

a. NC(=S)Nc1ccc2c(c1)C(=O)c1cc(Br)ccc1-2
b. NC(=S)Nc1ccc2c(c1)Cc1cc(Br)ccc1-2
Given a and given b , which shows the smaller recorded clearance? Returns: label corresponding to the selected item.
b

---

experiment: AUC in Sprague-Dawley rat at 5 mg/kg, iv
Assay type: ADME, organism-based
Set-up: dose 5 mg/kg, route intravenous
condition-summary: plasma
result-type: AUC (ng·h/mL)

a. NC(=S)Nc1ccc2c(c1)Cc1cc(Br)ccc1-2
b. NC(=S)Nc1ccc2c(c1)C(=O)c1cc(Br)ccc1-2
Task for the reader: decide whether a or b has the larger AUC. // caller expects the label of the chosen entry
a

---

experiment: Half life in Sprague-Dawley rat at 5 mg/kg, iv
Format: ADME, organism-based
Set-up: dose 5 mg/kg, route intravenous
condition-summary: in vivo
result-type: half-life (h)

A. NC(=S)Nc1ccc2c(c1)Cc1cc(Br)ccc1-2
B. NC(=S)Nc1ccc2c(c1)C(=O)c1cc(Br)ccc1-2
Consider A and B . Which of these has its half-life at a higher number? Select an item and report its label.
A
(A: 2.6 h, B: 1.4 h)

---

experiment: Volume of distribution at steady state in Sprague-Dawley rat at 5 mg/kg, iv
Assay type: ADME, organism-based
Set-up: dose 5 mg/kg, route intravenous
condition-summary: in vivo, read-out: Vdss
result-type: Vd (L/kg)

INSERT INTO results (smiles_entry, result_type, recorded_measurement) VALUES
  ('NC(=S)Nc1ccc2c(c1)Cc1cc(Br)ccc1-2', 'Vd', 2.8),
  ('NC(=S)Nc1ccc2c(c1)C(=O)c1cc(Br)ccc1-2', 'Vd', 2);

---

experiment: Cytotoxicity against human HuH7 cells after 24 hrs
Format: cell-based, Huh-7
Item-by-item account of CC50 at 24 h

INSERT INTO assay_data (smiles_entry, result_type, recorded_measurement) VALUES
  ('CCNC(=S)Nc1ccc2c(c1)Cc1cc(Br)ccc1-2', 'CC50 at 24 h', '> 50 µM'),
  ('NC(=S)Nc1ccc2oc(=O)c3ccccc3c2c1', 'CC50 at 24 h', '> 50 µM'),
  ('NC(=S)Nc1ccc2[nH]ncc2c1', 'CC50 at 24 h', '> 50 µM'),
  ('COc1cc2c(cc1NC(N)=S)oc1ccccc12', 'CC50 at 24 h', '> 50 µM'),
  ('NC(=S)Nc1ccc2c(c1)-c1ccccc1C2=O', 'CC50 at 24 h', '> 50 µM');

// returns reported CC50 at 24 h for input "CN(C)c1ccc2c(c1)Cc1cc(NC(N)=S)ccc1-2"
> 50 µM

Requested read-out: CC50 at 24 h. Entry: "NC(=S)Nc1ccc2c(c1)Cc1cc(N)ccc1-2"
> 50 µM

Given "NC(=S)Nc1cccc(Oc2ccccc2)c1" , state its recorded CC50 at 24 h.
> 50 µM

What does the data say about its CC50 at 24 h? Entry: "NC(=S)Nc1ccc2c(c1)Cc1cc(N(Cc3ccccc3)Cc3ccccc3)ccc1-2"
35.6 µM

Entry "S=C(Nc1ccc(N2CCOCC2)cc1)Nc1ccc2c(c1)Cc1cc(Br)ccc1-2" has what CC50 at 24 h?
18.1 µM

Return reported CC50 at 24 h; argument: "S=C(Nc1ccc2c(c1)Cc1cc(Br)ccc1-2)Nc1cccc2ccccc12"
> 50 µM

// query CC50 at 24 h value for entry "CCCNc1ccc2c(c1)Cc1cc(NC(N)=S)ccc1-2"
> 50 µM
